Ref: patent US9452986B2

Some compounds, each annotated with its measured log10(IC50).
- TESTED_TARGET: recombinant human Nav1.7 (Homo sapiens (Human), UniProt Q15858)
- Sequence (Q15858 whole entry): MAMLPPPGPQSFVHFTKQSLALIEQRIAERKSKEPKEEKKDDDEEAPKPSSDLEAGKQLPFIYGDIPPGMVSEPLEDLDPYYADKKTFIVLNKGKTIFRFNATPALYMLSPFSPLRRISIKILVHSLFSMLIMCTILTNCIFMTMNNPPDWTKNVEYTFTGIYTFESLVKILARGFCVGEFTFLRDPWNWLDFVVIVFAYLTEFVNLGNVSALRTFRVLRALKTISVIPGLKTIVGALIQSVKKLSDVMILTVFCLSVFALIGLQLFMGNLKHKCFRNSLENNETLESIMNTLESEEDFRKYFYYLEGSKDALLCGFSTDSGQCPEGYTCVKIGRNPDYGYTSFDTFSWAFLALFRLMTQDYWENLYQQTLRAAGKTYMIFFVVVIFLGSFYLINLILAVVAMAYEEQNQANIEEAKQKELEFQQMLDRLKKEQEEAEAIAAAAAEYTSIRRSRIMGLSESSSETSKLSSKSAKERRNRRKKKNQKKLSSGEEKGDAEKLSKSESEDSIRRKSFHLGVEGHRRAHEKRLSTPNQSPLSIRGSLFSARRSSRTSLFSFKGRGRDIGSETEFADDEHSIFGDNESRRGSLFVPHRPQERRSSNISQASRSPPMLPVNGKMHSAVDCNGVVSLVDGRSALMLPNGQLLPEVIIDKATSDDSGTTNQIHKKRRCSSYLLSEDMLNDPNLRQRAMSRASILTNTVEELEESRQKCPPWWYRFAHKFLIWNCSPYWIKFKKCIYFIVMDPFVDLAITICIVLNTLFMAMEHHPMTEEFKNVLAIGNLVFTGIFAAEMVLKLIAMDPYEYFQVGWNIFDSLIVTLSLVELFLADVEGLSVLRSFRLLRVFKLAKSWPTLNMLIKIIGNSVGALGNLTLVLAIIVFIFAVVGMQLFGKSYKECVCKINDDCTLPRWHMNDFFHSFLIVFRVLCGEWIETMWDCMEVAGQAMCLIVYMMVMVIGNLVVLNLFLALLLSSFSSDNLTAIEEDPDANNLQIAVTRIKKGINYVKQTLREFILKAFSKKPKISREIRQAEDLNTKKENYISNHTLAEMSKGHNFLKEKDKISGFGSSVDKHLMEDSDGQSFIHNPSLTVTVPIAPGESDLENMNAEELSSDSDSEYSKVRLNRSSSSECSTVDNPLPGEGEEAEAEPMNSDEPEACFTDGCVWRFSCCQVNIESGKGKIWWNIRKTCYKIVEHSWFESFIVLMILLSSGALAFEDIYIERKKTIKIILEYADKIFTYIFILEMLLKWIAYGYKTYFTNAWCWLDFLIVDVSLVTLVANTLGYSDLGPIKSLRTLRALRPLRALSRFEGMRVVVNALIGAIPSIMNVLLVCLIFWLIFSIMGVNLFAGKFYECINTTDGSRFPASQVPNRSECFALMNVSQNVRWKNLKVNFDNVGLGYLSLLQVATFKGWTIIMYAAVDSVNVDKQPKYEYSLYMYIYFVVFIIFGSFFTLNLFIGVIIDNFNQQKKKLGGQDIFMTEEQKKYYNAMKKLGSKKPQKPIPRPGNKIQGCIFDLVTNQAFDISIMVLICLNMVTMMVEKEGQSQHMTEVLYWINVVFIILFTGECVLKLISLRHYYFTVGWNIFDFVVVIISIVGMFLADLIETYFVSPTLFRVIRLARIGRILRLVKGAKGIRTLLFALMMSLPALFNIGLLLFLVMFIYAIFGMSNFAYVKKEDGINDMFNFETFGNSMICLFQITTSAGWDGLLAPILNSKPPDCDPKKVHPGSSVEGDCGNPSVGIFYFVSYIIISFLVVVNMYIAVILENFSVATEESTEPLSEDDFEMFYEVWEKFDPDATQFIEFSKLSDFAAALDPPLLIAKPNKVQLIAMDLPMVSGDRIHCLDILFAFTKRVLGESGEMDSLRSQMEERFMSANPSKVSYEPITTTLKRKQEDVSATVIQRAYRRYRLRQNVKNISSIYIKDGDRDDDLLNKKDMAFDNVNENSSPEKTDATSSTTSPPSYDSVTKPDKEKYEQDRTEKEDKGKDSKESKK
- MEASUREMENT_PROTOCOL: FRET-based membrane potential assay, recombinant human sodium channel Nav1.7
- Type: cell-based
- CONDITION_INFO: HEK293 cells stably expressing recombinant human Nav1.7; veratridine + scorpion venom depolarization; read-out: FRET-Membrane Potential Nav1.7 IC50
Kindly note that the scale is log10 and the underlying IC50 is in nM.

Reference set, count: 6
INSERT INTO measurements (compound, experimental_value) VALUES
  ('N[C@@H]1CCN(C(=O)c2ccc3cc(Oc4ccc(C(F)(F)F)cn4)ccc3n2)C1', 2.82),
  ('O=C(c1ccc2cc(Oc3ccc(OC(F)(F)F)cn3)ccc2n1)N1CC[C@@H](F)C1', 3.49),
  ('N#Cc1ccc(Oc2ccc3nc(C(=O)NCCS(N)(=O)=O)ccc3c2)cc1', 3.63),
  ('COCCNC(=O)CN(C)C(=O)c1ccc2cc(Oc3ccc(C(F)(F)F)nc3)ccc2n1', 4.11),
  ('CN1CC(NC(=O)c2ccc3cc(Oc4ccc(C(F)(F)F)cn4)ccc3n2)CC1=O (stereo not shown) [Example 448]', 2.57),
  ('COCC1(F)CCN(C(=O)c2ccc3cc(Oc4ccc(C(F)(F)F)cn4)ccc3n2)C1 (stereo not shown)', 2.96);

Exercise: // returns reported log10(IC50) for input `O=C(NCCF)c1ccc2cc(Oc3ccc(C(F)(F)F)cn3)ccc2n1`
Key: 3.40

Exercise: // returns reported log10(IC50) for input `CC(C)(O)CNC(=O)c1ccc2cc(Oc3ccc(C(F)(F)F)cn3)ccc2n1`
Key: 2.90

Exercise: // returns reported log10(IC50) for input `CN1CCN(C(=O)c2ccc3cc(Oc4ccc(C#N)cc4)ccc3n2)CC1`
Key: 3.27
